// data source = paper PMC10054477

Target Or System: PI3Kα (Homo sapiens, UniProt P42336)
Construct: purchased SignalChem P27-122DH
Sequence (P42336 whole entry): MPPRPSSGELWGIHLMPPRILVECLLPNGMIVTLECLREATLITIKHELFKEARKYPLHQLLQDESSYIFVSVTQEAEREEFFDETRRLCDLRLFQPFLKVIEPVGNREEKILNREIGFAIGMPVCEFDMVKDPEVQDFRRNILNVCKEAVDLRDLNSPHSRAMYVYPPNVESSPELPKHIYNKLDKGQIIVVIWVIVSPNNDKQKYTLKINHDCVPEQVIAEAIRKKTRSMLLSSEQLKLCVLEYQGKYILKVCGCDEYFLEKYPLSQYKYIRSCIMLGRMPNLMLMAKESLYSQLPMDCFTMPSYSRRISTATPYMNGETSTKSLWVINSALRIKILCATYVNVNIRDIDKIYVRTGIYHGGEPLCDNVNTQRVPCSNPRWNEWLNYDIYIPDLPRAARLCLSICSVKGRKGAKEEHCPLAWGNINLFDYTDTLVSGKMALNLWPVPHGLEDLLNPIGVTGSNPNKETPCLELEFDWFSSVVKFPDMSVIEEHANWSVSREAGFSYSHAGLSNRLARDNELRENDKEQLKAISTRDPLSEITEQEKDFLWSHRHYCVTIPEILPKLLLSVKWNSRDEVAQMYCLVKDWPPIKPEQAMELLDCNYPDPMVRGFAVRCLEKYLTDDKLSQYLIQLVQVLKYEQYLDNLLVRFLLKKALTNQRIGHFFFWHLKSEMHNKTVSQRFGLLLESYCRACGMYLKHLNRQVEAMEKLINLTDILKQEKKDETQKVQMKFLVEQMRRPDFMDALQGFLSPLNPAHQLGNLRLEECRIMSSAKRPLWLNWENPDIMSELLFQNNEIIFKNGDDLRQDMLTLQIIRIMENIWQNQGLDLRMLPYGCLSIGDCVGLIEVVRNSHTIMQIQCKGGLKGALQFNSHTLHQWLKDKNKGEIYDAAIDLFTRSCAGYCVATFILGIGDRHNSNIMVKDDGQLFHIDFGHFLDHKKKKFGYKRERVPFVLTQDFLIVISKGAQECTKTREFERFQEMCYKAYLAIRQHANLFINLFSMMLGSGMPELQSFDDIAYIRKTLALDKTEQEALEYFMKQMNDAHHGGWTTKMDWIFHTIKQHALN
Sequence (P27986 whole entry partner): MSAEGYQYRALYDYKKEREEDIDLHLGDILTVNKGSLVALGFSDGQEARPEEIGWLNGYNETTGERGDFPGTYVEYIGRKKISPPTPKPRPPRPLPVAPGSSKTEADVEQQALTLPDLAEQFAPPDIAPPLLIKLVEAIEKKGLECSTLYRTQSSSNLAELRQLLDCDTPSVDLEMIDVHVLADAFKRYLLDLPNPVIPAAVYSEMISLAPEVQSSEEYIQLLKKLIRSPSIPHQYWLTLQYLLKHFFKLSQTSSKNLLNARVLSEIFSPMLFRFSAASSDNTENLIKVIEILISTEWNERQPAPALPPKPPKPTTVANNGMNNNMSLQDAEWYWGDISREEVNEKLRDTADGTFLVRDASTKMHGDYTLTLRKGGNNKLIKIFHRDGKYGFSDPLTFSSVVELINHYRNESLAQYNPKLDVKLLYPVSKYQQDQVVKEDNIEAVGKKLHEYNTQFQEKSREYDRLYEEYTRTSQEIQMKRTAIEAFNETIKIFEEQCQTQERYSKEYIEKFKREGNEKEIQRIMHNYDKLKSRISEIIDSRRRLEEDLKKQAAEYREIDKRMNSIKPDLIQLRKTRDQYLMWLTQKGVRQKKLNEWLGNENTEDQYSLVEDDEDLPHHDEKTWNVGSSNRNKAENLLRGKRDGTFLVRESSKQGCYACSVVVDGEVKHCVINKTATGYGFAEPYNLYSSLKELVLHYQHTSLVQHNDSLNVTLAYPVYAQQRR
Assay Explanation: ADP-Glo kinase assay, PI3Kα enzyme inhibition
Assay type: biochemical
Conditions: Table 1; at 1 nM
Value Type: inhibition at 0.001 µM (%)

Compound: COc1ncc(-c2ccc3c(c2)sc2c(NC(C)C)ncnc23)cc1NS(=O)(=O)c1ccc(F)cc1F [11g]
Target Or System: PI3Kα (Homo sapiens, UniProt P42336)
Units Label: %
Observed Measurement: 44
//
Compound: COc1ncc(-c2ccc3c(c2)sc2c(NCCO)ncnc23)cc1NS(=O)(=O)c1ccc(F)cc1F [11c]
Target Or System: PI3Kα (Homo sapiens, UniProt P42336)
Units Label: %
Observed Measurement: 29
//
Compound: CCCCNc1ncnc2c1sc1cc(-c3cnc(OC)c(NS(=O)(=O)c4ccc(F)cc4F)c3)ccc12 [11i]
Target Or System: PI3Kα (Homo sapiens, UniProt P42336)
Units Label: %
Observed Measurement: 15
//
Compound: COc1ncc(-c2ccc3c(c2)sc2c(NCCN)ncnc23)cc1NS(=O)(=O)c1ccc(F)cc1F [11f]
Target Or System: PI3Kα (Homo sapiens, UniProt P42336)
Units Label: %
Observed Measurement: 10
//
Compound: COCCOc1ncnc2c1sc1cc(-c3cnc(OC)c(NS(=O)(=O)c4ccc(F)cc4F)c3)ccc12 [11l]
Target Or System: PI3Kα (Homo sapiens, UniProt P42336)
Units Label: %
Observed Measurement: 18
//
Compound: COCCCNc1ncnc2c1sc1cc(-c3cnc(OC)c(NS(=O)(=O)c4ccc(F)cc4F)c3)ccc12 [11e]
Target Or System: PI3Kα (Homo sapiens, UniProt P42336)
Units Label: %
Observed Measurement: 35
